# method_notes: Solubility of the compound in sodium phosphate buffer at pH 7.4 after 24 hrs by LC/MS/MS analysis
# Assay type: physicochemical
readout_kind: solubility at 24 h (µM)

In [3]: df
Out[3]:
                                   compound  meas_value
0  CC(NC(=O)NCCCCCCCCNC(=O)NC(C)C12CC3CC(CC(C3)C1)C2)C12CC3CC(CC(C3)C1)C2 (stereo unspecified)          10
1  CC(NC(=O)NCCCCNC(=O)NC(C)C12CC3CC(CC(C3)C1)C2)C12CC3CC(CC(C3)C1)C2 (stereo unspecified)          10
2  O=C(NCCCCCCCCNC(=O)NC1C2CC3CC(C2)CC1C3)NC1C2CC3CC(C2)CC1C3 (stereo unspecified)           5
3                   O=C(NC1CCCCC1)NC1CCCCC1           5
4  O=C(NCCCCCCNC(=O)NCC12CC3CC(CC(C3)C1)C2)NCC12CC3CC(CC(C3)C1)C2          50
5  O=C(NC12CC3CC(CC(C3)C1)C2)NC12CC3CC(CC(C3)C1)C2           5

Where do these numbers come from? They come from ChEMBL document CHEMBL3259769.
